// provenance: the supplement of paper PMC8728848

biological target: Neu5Ac(a2-3)Gal(b1-3)GalNAc6S; experiment: glycan array binding signal (z-score within array); higher = stronger binding; details: glycan notation: IUPAC condensed, linker removed
The full list was thinned out, with the strongest signals kept by preference.
endpoint_label: glycan array binding signal (z-score)
Form field (numeric): enter value without unit.

Please review the following examples before continuing.
[[record]]
binder = "CFEM-CGl (Candida glabrata), Q6FRS0 (protein) VLATPPACLLACVAQVSKQSSQCHTLNQVGCFCENENTAIKNCLDSICPNGNSDAAYTAFKNSCGDVGKAVASV"
value = 0.752

[[record]]
binder = "CBM13 2a (Mycobacterium tuberculosum), P64849 (protein) DGPVQLKSRLGDVCLDAPSGSWFSPLVINPCNGTDFQRWNLTDDRQVESVAFPGECVNIGNALWARLQPCVNWISQHWTVQPDGLVKSDLDACLTVLGGPDPGTWVSTRWCDPNAPDQQWDSVPLEHHHHHH"
value = -0.262

[[record]]
binder = "AFL5 (Aspergillus fumigatus), Q4WB00 (protein) MDNFMEMTKKLGHQPELLRLRALDATYDDALEGKLVVAPLDMSEPGKKILDSGTADGTWLRNVRSKQSVPHDYYGSDVEGELFPKDPDGITYFAHSFKDPWPQQYLGFFDLVHIRGSLAGSAPEGPAPVIQNLTTLLKPGGWVQLMEMNAFSPPPNGPAMTDFAKMASEMFTGIGVGDFANNNKSMLEDAGLKNVQEKRVIVNLGKKAKPELHDQSIHGVTGPIVPLTSVARTVKSSFTGEQLDALPARVKEELETEGGQVEMIIAFGQKA"
value = -0.456

[[record]]
binder = "LF82 (Escherichia coli) (protein) ADWGPCRTASGDPFIFVTSFTKNIQNPTDNVTGQTYPDFYQWALGDKYSGVCECPSPNPTEARPTLYKTESTLAAGHNSTYFKITNNLEVSTRVYIANVGNVQVPFINKSNSQPGRECDQPTFGWTTGSKGQLSLYIAKPFVGEQNIPQTIIVSVFGTKKENVYSSVPISQVLLSGKVTVTQGCELAAGTSLDIDFGEYQAHDFKGRTGQPPQNVQKIQKELTFNCTNISDGVHIYLSLEGTPNAAYPSAISLGNADVGAVIEDGKGNILKPNDSNSLLEMNPGSLYEYVKRKVTTTITAYPVSTTGKLPAAGDYSGVATMHVELDGGGGGGGGGGATTDLGAKGTLKFSLKISQGHHHHHH"
value = 0.435


Continue with the binder presented below.
Enquiry: Quick one: glycan array binding signal (z-score) for Epa3 (Candida glabrata), Q6VBI8_CANGB (protein) MGSSHHHHHHSSGLVPRGSHMNDLGFSLFEKRELSSQNPFGYPIGCSPQDVAIIPGLTMELYSYPIVSGTPPNCYDASYVDPEYPRTGYLKRKMVGKSTGVTGNLNYKYSVEKACMVKYGNLPAGYNYNEPLTVSNFTMILYGYFKAQTTGLHTFFVNADDLLYINFGAGNAFDCCKREDSKTKLGEYVAYDIWHVDSSKNKVSLFLEKDLYYPIRMFFNNIGKDSSLDLSFSVNGATDQISDFSGYLYSVPDQPDTCPAHIGYDTTCR ?
Return: -0.264
